Cited source for all entries: patent US8232288B2

# System under test: human B1R receptor (hB1R) (Homo sapiens)
# Construct: expressed in transfected cells; host or cells: CHO K1 cells
# Sequence (P46663 whole entry): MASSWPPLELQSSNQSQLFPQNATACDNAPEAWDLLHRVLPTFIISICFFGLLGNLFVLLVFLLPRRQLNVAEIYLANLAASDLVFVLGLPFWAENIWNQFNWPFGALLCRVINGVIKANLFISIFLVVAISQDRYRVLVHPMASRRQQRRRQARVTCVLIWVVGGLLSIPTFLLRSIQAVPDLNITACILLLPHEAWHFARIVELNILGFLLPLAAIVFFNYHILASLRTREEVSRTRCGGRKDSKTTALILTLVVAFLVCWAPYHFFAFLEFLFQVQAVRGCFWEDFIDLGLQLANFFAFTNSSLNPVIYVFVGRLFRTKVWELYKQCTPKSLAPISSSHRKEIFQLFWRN
# Assay text: Functional investigation on the bradykinin receptor 1 (B1R), FLIPR Ca2+ assay, hB1R cells
# Type: cell-based
Property: inhibition at 10 µM (%)
Give the number; % is assumed, so skip it.

>>> numeric_value("COc1cc(C)c(S(=O)(=O)N(C)Cc2nc3cccc(CN4CCC5(CC4)CCN(c4ccncc4)CC5)c3[nH]2)c(C)c1")
100
>>> numeric_value("COc1cc(C)c(S(=O)(=O)N(C)C(C)c2nc3cccc(C(=O)N4CCC5(CCN(Cc6ccc(F)c(F)c6)CC5)CC4)c3[nH]2)c(C)c1 (stereo not shown)")
63
>>> numeric_value("COc1cc(C)c(C(=O)N(C)Cc2nc3cccc(C(=O)N4CCC5(CC4)CCN(c4ccncc4)CC5)c3[nH]2)c(C)c1")
100
>>> numeric_value("CN(Cc1nc2cccc(C(=O)N3CCC4(CC3)CCN(c3ccncc3)CC4)c2[nH]1)C(=O)c1ccc(Cl)s1")
91

(Q) Find the measured inhibition at 10 µM of COc1cc(C)c(S(=O)(=O)N(C)Cc2nc3cccc(C(=O)N4CCC5(CCC(N6CC(F)(F)C6)CC5)CC4)c3[nH]2)c(C)c1 and report it.
(A) 55

(Q) Find the measured inhibition at 10 µM of CN(Cc1nc2cccc(C(=O)N3CCC4(CC3)CCN(c3ccncc3)CC4)c2[nH]1)C(=O)c1sccc1Cl and report it.
(A) 30

(Q) Find the measured inhibition at 10 µM of COc1cc(C)c(S(=O)(=O)N(C)C(C)c2nc3cccc(C(=O)N4CCC5(CCN(Cc6cnn(C)c6C)CC5)CC4)c3[nH]2)c(C)c1 (stereo not shown) and report it.
(A) 83

(Q) Find the measured inhibition at 10 µM of COc1cc(C)c(S(=O)(=O)N(C)c2nc3cccc(C(=O)N4CCC5(CC4)C(=O)NCC5c4ccncc4)c3n2C)c(C)c1 (stereo not shown) and report it.
(A) 72

(Q) Find the measured inhibition at 10 µM of CN(Cc1nc2cccc(C(=O)N3CCC4(CC3)CCN(c3ccncc3)CC4)c2[nH]1)C(=O)c1ccccc1Cl and report it.
(A) 65

(Q) Find the measured inhibition at 10 µM of COc1cc(C)c(S(=O)(=O)N(Cc2nc3cccc(C(=O)N4CCC5(CC4)CCN(c4ccncc4)CC5)c3[nH]2)C2CC2)c(C)c1 and report it.
(A) 99

(Q) Find the measured inhibition at 10 µM of COc1cc(C)c(S(=O)(=O)N(C)Cc2nc3ccc(C(=O)N4CCC5(CC4)CCN(c4ccncc4)CC5)cc3[nH]2)c(C)c1 and report it.
(A) 100

(Q) Find the measured inhibition at 10 µM of COc1cc(C)c(S(=O)(=O)N(C)Cc2nc3cccc(C(=O)N4CCC5(CC4)CCN(c4ccncc4)C5)c3[nH]2)c(C)c1 and report it.
(A) 100

(Q) Find the measured inhibition at 10 µM of CN(Cc1nc2cccc(C(=O)N3CCC4(CC3)CCN(c3ccncc3)CC4)c2[nH]1)S(=O)(=O)c1ccccc1C(F)(F)F and report it.
(A) 100

* * *

# System under test: B1R receptor of the rat (rB1R) (Rattus norvegicus, UniProt P97583)
# Construct: expressed in transfected cells; host or cells: CHO K1 cells
# Sequence (P97583 1-337): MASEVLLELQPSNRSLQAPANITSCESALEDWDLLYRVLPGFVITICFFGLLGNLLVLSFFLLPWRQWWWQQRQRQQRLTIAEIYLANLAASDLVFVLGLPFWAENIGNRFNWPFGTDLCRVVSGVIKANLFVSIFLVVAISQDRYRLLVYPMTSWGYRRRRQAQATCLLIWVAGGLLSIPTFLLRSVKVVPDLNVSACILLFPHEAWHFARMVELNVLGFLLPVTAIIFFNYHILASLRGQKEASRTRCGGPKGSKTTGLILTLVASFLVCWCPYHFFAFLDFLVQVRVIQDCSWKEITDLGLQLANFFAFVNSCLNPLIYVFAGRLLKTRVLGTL
# Assay text: Functional investigation on the bradykinin receptor 1 (B1R), FLIPR Ca2+ assay, rB1R cells
# Type: cell-based
Where a name gives a salt, the structure may show the parent alone.
Property: inhibition at 10 µM (%)
Give the number; % is assumed, so skip it.

>>> numeric_value("COc1cc(C)c(S(=O)(=O)N(C)C(C)c2nc3cccc(C(=O)N4CCC5(CCN(Cc6cccnc6)CC5)CC4)c3[nH]2)c(C)c1 (stereo not shown) [I_CC-28]")
85
>>> numeric_value("COc1cc(C)c(S(=O)(=O)N(C)C(C)c2nc3cccc(C(=O)N4CCC5(CCN(C(=O)c6ccc(F)cc6F)CC5)CC4)c3[nH]2)c(C)c1 (stereo not shown) [I_CC-53]")
88
>>> numeric_value("CN(Cc1nc2cccc(C(=O)N3CCC4(CC3)CCN(c3ccncc3)CC4)c2[nH]1)S(=O)(=O)c1ccc(OC(F)(F)F)cc1Cl [I_11, hydrochloride]")
99

Turning now to a further compound:
(Q) Find the measured inhibition at 10 µM of Cc1cc(S(=O)(=O)N(C)Cc2nc3cccc(C(=O)N4CCC5(CC4)CCN(c4ccncc4)CC5)c3[nH]2)c(C)cc1Cl [I_CC-01] and report it.
(A) 92
